B1: KLHL14 (parent)
chain: WLYCYDPVMDVWARKQDMNTKRAI

# Variants of: B1
# TEST_DESCRIPTION: protein stability index of a GFP-peptide fusion (GPS, HEK-293T) (PSI 1-6); higher = more stable;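 also: lentivirally expressed fusions sorted by FACS into six bins by GFP to DsRed ratio, PSI derived from sequencing read proportions per bin multiplied by bin number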
# CONDITION_LABEL: c terminus: a fixed tail appended
RESULT_TYPE: protein stability index
Answer with the value's number alone.

# MUT, protein stability index
rows = [
    ("D10P", 1.72),
    ("D6I", 1.83),
    ("W1R", 2.55),
    ("V8P", 1.8),
    ("M18W", 2.86),
    ("M18K", 2.1),
    ("M18Y", 2.17),
    ("L2D", 2.52),
    ("D17T", 1.78),
    ("K15F", 1.76),
]

Summary for this variant, A13P : protein stability index is 1.82

Recorded result, R22H , protein stability index: 2.01
